Test system: SK-MEL-28
Assay: NCI tumour cell line growth inhibition, 48 h
Active and inactive are the calls of the source. Cut-off read from the data, not from the text of the source: active = GI50 up to about 1.1 µM and inactive = higher.
Give your call using only these classes: active, inactive

compound=NC(=S)N/N=C/c1ccc(OC(=O)COc2ccccc2Cl)cn1 measurement_target=SK-MEL-28 cat=inactive
compound="CCN(CC)[C@@H]1c2cc3c(cc2C(c2cc(OC)c(O)c(OC)c2)C2C(=O)CO[C@@H]21)OCO3 (stereo partly drawn)" measurement_target=SK-MEL-28 cat=inactive

Query block: Just curious, what result did CCN(CC)C(=O)CNC(=O)OC(C)(C)C get here?
Result block: inactive

Query block: For CC(=O)c1ccc(O)c(CN(C2CCCCC2)C2CCCCC2)c1O , which call appears in the assay record?
Result block: inactive

Query block: What classification did Nc1nccc(NCC2(CO)CCC2)n1 end up with in this test?
Result block: inactive

Query block: Hi team, can someone confirm the assay call for O=c1c2ccccc2c(=O)c2c1cc(Cl)c1[nH]c3c([nH]c12)c(Cl)cc1c(=O)c2ccccc2c(=O)c13 ?
Result block: inactive

Query block: Answer briefly: the call reported for COc1ccc(/N=C(/SS/C(=N/c2ccc(OC)cc2)c2ccc([N+](=O)[O-])o2)c2ccc([N+](=O)[O-])o2)cc1 in this assay.
Result block: inactive

Query block: Which outcome was entered for the compound O=C(O)CN(c1ccccc1)S(=O)(=O)c1cccc([N+](=O)[O-])c1 in this test?
Result block: inactive

Query block: Please state the recorded outcome for this compound: CCCNc1ncnc2c1cnn2C
Result block: inactive

Query block: Name the outcome recorded for CSc1sc(=S)sc1SC in the assay.
Result block: inactive

* * *

System: SR
Test: NCI tumour cell line growth inhibition, 48 h
Active and inactive are the calls of the source. No stated cut-off is given here; in the data, active = GI50 up to about 1.1 µM and inactive = higher.
quantity_measured: GI50

Past entries and their recorded results:
compound=CC(=O)OC[C@@H](OC(C)=O)[C@@H](OC(C)=O)[C@H]1OC[C@@H]2C[C@H]([C@H]1OC(C)=O)N(Cc1ccccc1)O2 result="> 100 µM (inactive)"
compound=O=c1[nH]c2nc3ccccc3c(=O)n2/c1=C/c1ccc(O)cc1 result="16.9 µM (inactive)"
compound="CC(=O)OC1CC2C(C)(C)OC(=O)CC(OC(C)=O)[C@]2(C)C2CCC3(C)C(=CCC3[C@H]3COC(=O)C3)[C@]12C (stereo not given in full)" result="24 µM (inactive)"
compound=COc1ccc(C(=O)O)c2c(=O)c3ccccc3[nH]c12 result="> 100 µM (inactive)"

Query block: API: value(readout= GI50, system= SR, query= O=C1Nc2ccc(S(=O)(=O)N(CCO)CCO)cc2/C1=C1/Nc2ccccc2C1=O )
Result block: 1.91 µM (inactive)

* * *

Reported GI50 values for a set of compounds
Test system: SF-295
Assay: NCI tumour cell line growth inhibition, 48 h
Activity calls are given as the source filed them. Cut-off read from the data, not from the text of the source: active = GI50 up to about 1.1 µM and inactive = higher.

Worked examples, 5 compounds total:
compound=CCOC(=O)C1=CCOc2cc(N(C)C)ccc21 quantity_measured=GI50 result="> 100 µM (inactive)"
compound=O=c1c2ccccc2c(=O)c2c1cc(Cl)c1[nH]c3c([nH]c12)c(Cl)cc1c(=O)c2ccccc2c(=O)c13 quantity_measured=GI50 result="> 100 µM (inactive)"
compound="Cc1ccc(C(CC(=O)C(C)(C)CN2CCCCC2)SCCS(=O)(=O)O)cc1 (stereo not given)" quantity_measured=GI50 result="15 µM (inactive)"
compound="CC1C[C@H](C)CC(C(O)CC2CC(=O)N(Cc3ccccc3)C(=O)C2)C1O (stereo not given in full)" quantity_measured=GI50 result="> 100 µM (inactive)"
compound=NS(=O)(=O)c1ccc(NC(=S)N/C=C2\C(=O)Nc3ccccc3C2=O)cc1 quantity_measured=GI50 result="> 100 µM (inactive)"

Query block: Find the recorded GI50 belonging to O=c1[nH]c2cc([N+](=O)[O-])c(N(CCO)CCO)c([N+](=O)[O-])c2[nH]1 and report it.
Result block: 28.4 µM (inactive)

Query block: Name the reported GI50 value associated with the compound COc1ccc(OC)c(CNc2ccc(O)c(C(=O)NCCc3ccc(F)cc3)c2)c1
Result block: 13.7 µM (inactive)

Query block: Fill in: GI50 of CCCNc1ncnc2c1cnn2C is ___
Result block: > 100 µM (inactive)

Query block: Using the record for CC(C)(C)[Si](C)(C)OCC1OC(n2cnc3c(=O)[nH]cnc32)CC1O (stereo not given) , report its GI50.
Result block: > 100 µM (inactive)

Query block: Reported GI50, compound C=CC(OCC)(OCC)OCC : ____
Result block: > 100 µM (inactive)
